System Under Test: KRAS G13C (Homo sapiens (Human), UniProt P01116+P62937, G13C)
Sequence (P01116 other isoform, or with tags, fused parts or gaps G13C): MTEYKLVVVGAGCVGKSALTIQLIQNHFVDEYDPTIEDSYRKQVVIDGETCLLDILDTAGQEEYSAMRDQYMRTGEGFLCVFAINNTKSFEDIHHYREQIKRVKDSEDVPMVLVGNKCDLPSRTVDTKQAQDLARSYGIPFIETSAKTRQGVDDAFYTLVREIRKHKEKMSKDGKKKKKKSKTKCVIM
Sequence (P62937 whole entry): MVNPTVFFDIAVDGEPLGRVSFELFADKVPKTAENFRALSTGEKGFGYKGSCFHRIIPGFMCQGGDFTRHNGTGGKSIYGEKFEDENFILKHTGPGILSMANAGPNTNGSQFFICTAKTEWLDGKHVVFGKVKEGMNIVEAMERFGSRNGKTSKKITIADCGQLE
Experiment Notes: Ras-Raf disruption/FRET/MOA assay (BRAF RBD, Cyclophilin A)
Type: biochemical
Condition Summary: read-out: KRAS G13C FRET IC50
pIC50: −log10 of the molar value.
Recorded Metric: pIC50

input: // returns reported pIC50 for input CCn1c(-c2cccnc2[C@H](C)OC)c2c3cc(ccc31)-c1csc(n1)C[C@H](NC(=O)[C@H](C(C)C)N(C)C(=O)N1C[C@@H]3C[C@H]1CN3C)C(=O)N1CCC[C@H](N1)C(=O)OCC(C)(C)C2
output: 6.00 to 7.00

input: // lookup pIC50 for CCn1c(-c2cccnc2[C@H](C)OC)c2c3cc(ccc31)-c1csc(n1)C[C@H](NC(=O)[C@H](C(C)C)N1CCC3(CN(S(C)(=O)=O)C3)C1=O)C(=O)N1CCC[C@H](N1)C(=O)OCC(C)(C)C2
output: 5.00 to 6.00

input: Value lookup for pIC50; key = CCn1c(-c2cccnc2[C@H](C)OC)c2c3cc(ccc31)-c1csc(n1)C[C@H](NC(=O)[C@H](C(C)C)N(C)C(=O)N1C[C@@H](C)N(C)C[C@@H]1C)C(=O)N1CCC[C@H](N1)C(=O)OCC(C)(C)C2
output: 5.00 to 6.00

input: # lookup: pIC50 of CCn1c(-c2cccnc2[C@H](C)OC)c2c3cc(ccc31)-c1cc(CF)cc(c1)C[C@H](NC(=O)[C@H](C(C)C)N(C)C(=O)[C@@H]1OCC[C@@H]1c1ccccc1)C(=O)N1CCC[C@H](N1)C(=O)OCC(C)(C)C2
output: 7.00 to 8.00

* * *

System Under Test: KRAS G12V (Homo sapiens (Human), UniProt P01116+P62937, G12V)
Sequence (P01116 other isoform, or with tags, fused parts or gaps G12V): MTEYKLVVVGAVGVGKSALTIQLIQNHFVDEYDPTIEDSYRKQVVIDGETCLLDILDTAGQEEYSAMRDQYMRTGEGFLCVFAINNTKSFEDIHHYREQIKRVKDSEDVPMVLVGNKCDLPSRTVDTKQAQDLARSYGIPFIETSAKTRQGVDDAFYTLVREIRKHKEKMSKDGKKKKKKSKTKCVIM
Sequence (P62937 whole entry): as the sequence (P62937 whole entry) above
Experiment Notes: Ras-Raf disruption/FRET/MOA assay, KRAS G12V
Assay type: biochemical
Condition Summary: read-out: KRAS G12V FRET IC50
pIC50: −log10 of the molar value.
Recorded Metric: pIC50

input: Short answer please: pIC50, KRAS G12V (Homo sapiens (Human), UniProt P01116+P62937, G12V), entry CCn1c(-c2cnccc2COC)c2c3cc(ccc31)-c1cc(O)cc(c1)C[C@H](NC(=O)[C@H](C(C)C)N(C)C(=O)CCN(C)C(=O)[C@@H]1CN1)C(=O)N1CCC[C@H](N1)C(=O)OCC(C)(C)C2
output: 6.00 to 7.00

input: Query the reported pIC50 for KRAS G12V (Homo sapiens (Human), UniProt P01116+P62937, G12V); item: CCn1c(-c2cnccc2COC)c2c3cc(ccc31)-c1cc(O)cc(c1)C[C@H](NC(=O)[C@H](C(C)C)N(C)C(=O)C1CCN(C(=O)[C@H]3CN3)CC1)C(=O)N1CCC[C@H](N1)C(=O)OCC(C)(C)C2
output: 6.00 to 7.00

input: Fill in the recorded pIC50 for this compound, with KRAS G12V (Homo sapiens (Human), UniProt P01116+P62937, G12V) as test system: CCn1c(-c2cnccc2COC)c2c3cc(ccc31)-c1cc(O)cc(c1)C[C@H](NC(=O)[C@@H](CN(C)C(=O)[C@@H]1CN1)C(C)C)C(=O)N1CCC[C@H](N1)C(=O)OCC(C)(C)C2
output: 5.00 to 6.00

Entry source: patent US20250195521A1
